Attribution: PubChem BioAssay

Assignment: determine reported composite z-score for the given compounds.
- target: Fibroblast growth factor 2 (Homo sapiens) (UniProt P09038)
- Sequence (P09038 whole entry, looked up): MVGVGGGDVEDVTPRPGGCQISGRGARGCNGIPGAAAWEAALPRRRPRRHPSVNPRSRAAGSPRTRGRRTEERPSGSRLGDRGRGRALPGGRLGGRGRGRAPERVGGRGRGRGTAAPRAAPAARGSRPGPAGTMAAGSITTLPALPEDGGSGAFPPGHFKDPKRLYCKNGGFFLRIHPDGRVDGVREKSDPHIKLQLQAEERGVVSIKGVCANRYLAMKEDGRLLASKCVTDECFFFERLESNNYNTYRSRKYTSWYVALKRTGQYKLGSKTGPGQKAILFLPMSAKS
- test: FGF2 binders on small-molecule microarrays, primary screen, biochemical, small-molecule microarray, 635/667 nm fluorescence (AID 1133)
- cond: small-molecule microarray binding, FGF2, fluorescence 635/667; higher = more signal
Would you mind answering with just the numeric figure?

In: // query composite z-score value for entry CCOC(=O)C1=CCC(c2ccccc2)N(S(=O)(=O)CC[Si](C)(C)C)C1 (stereo not drawn)
Out: -0.617

In: Quick check: composite z-score of `C=C(COC)/C(=C/C[C@H](OC(=O)c1ccncc1)c1ccc(OCCO)cc1)c1cnc2ccccc2c1` ?
Out: 1.02

In: Please report the recorded composite z-score for CC(C)C(CO)N1C(=O)[C@@H]2[C@H]3C(=O)OCC=C[C@H]3OC23C=CCN(C(C)C)C(=O)[C@@H]13 (stereo partly drawn) .
Out: -0.501

In: Look up composite z-score for this compound: `COC(=O)[C@@]1(Cc2ccc(F)cc2)[C@H]2c3cc(C(=O)N4CCCC4)n(Cc4ccc(C)o4)c3C[C@H]2CN1C(=O)c1ccccc1`
Out: -0.708

In: Bench note: what composite z-score did `NC(=O)[C@@H]1[C@H]2C(=O)O[C@H](c3ccccc3)[C@H](c3ccccc3)N2[C@H](c2ccc(O)cc2)[C@@]12C(=O)Nc1ccc(C#CC3(O)CCCCCC3)cc12` show?
Out: -0.384

In: Requested field: composite z-score. Item: `O=C1O[C@H](c2ccccc2)[C@H](c2ccccc2)N2[C@H]1[C@@H](C(=O)O)[C@]1(C(=O)Nc3ccc(C#CCCO)cc31)[C@H]2c1ccc(O)cc1`
Out: -0.317

In: Which value of composite z-score has been reported for `O=C1NCC(=O)N2[C@@H]1C[C@@H](C(=O)O)[C@H]2c1cccc(OCCO)c1` in the records?
Out: 1.5

In: So what's the measured composite z-score for this one? `COCCOC(=O)N1C(=O)[C@@]2(c3cc(C#CCCO)ccc31)[C@H](c1ccc(OCCO)cc1)N1[C@H](c3ccccc3)[C@H](c3ccccc3)OC(=O)[C@H]1[C@@H]2C(=O)N1CCN(c2ncccn2)CC1`
Out: 1.32

In: Fill blank: measured composite z-score of the compound `C=CC[C@]1(C(=O)NCCCOC)N=C(c2ccc(OCCCO)cc2)O[C@H]1c1ccccc1N=[N+]=[N-]` is ____.
Out: 1.28

In: What value of composite z-score has been reported for the following compound? `COCCOC(=O)N1C(=O)[C@@]2(c3cc(C#Cc4ccc(OC)cc4)ccc31)[C@H](c1ccccc1OCCO)N1[C@H](c3ccccc3)[C@H](c3ccccc3)OC(=O)[C@H]1[C@@H]2C(=O)N1CCN(c2ncccn2)CC1`
Out: 0.404

In: // composite z-score lookup, key: `O=C1C[C@]2(c3ccc([N+](=O)[O-])cc3)C(=O)N(CCN3CCOCC3)c3cc(CO)ccc3[C@H]2N1C1CCCCC1`
Out: 0.189

In: Please look up its composite z-score: C#CCN(Cc1ccccc1Br)C(/C=C/c1ccccc1)CO (stereo not drawn)
Out: 0.774

In: # query: composite z-score of entry `C=CCOC(=O)[C@H]1[C@@H]2C(=O)O[C@@H](c3ccccc3)[C@@H](c3ccccc3)N2[C@@H](c2ccc(OCCOC(=O)[C@H]3C[C@H]4C(=O)N5CCC[C@H]5C(=O)N4[C@H]3c3ccc(O)cc3)cc2)[C@]12C(=O)Nc1ccc(I)cc12`
Out: 1.6
